Study the reported IC50 values for Tyrosine-protein kinase JAK2 (Homo sapiens, UniProt O60674) given below; they originate from different publications.

Guide cases for IC50, answers given:
N#Cc1cccc(S(=O)(=O)N[C@H]2C[C@@H](Nc3c(-c4ccncn4)cnc4[nH]ccc34)C2)c1 : ≤ 10 nM
CCOC(=O)c1cnc2[nH]ccc2c1N[C@H]1C[C@H](NS(=O)(=O)c2cccc(C#N)c2)C1 : 10 to 100 nM
N#CCCn1cc(-c2nc(-c3ccc(N4CCOCC4)cc3)cc3nccn23)cn1 : 10 to 100 nM
Cc1cnc(Nc2ccc(N3CCN(C)CC3)c(F)c2)nc1Nc1cccc(CC#N)c1 : > 1000 nM

// IC50 lookup, key: N#CCC1(n2cc(-c3ccnc4[nH]ccc34)cn2)CN(c2cnc(C(=O)NCC(F)(F)F)cn2)C1 10 to 40 nM

Reported IC50 for C[C@H](O)C(=O)N1CC[C@H](Oc2ccc(-c3ncnc(Nc4ccc(O[C@H]5CCN(C)C[C@H]5F)cc4)n3)cc2C#N)[C@H](F)C1 : what is it? ≥ 1000 nM

# input compound: CC(C)n1cc(-c2cc3nccn3c(-c3cnn(C4(CC#N)CN(CC(F)(F)F)C4)c3)n2)cn1 ; wanted: its IC50 10 to 100 nM
